system: Cytochrome P450 2C9 (Homo sapiens)
method.summary: Cytochrome panel assay with activity outcomes; on activity, negative = inhibition: on the % scale 0 is the no-effect control and ±100 the full control effect
condition.notes: recombinant CYP, pro-luciferin dealkylation, luminescence, p450-cyp2c9; series mostly up to 57.1 µM
Among all 16,000 compounds or so, about 4,000 (25%) were called active. Not shown: some 26% with an inconclusive outcome. These entries were drawn from the full list.
property.label: activity, negative = inhibition

Past entries and their recorded results:
{"columns": ["chemical.structure", "system", "activity, negative = inhibition"],
 "data": [
  ["COc1cccc(-c2nccc(NC3CCNCC3)n2)c1", "Cytochrome P450 2C9 (Homo sapiens)", "9.19% [at 2.29 µM] (inactive)"],
  ["CN(Cc1ccco1)c1ncnc2ccc(-c3ccccc3C#N)cc12", "Cytochrome P450 2C9 (Homo sapiens)", "-18.9% [at 2.29 µM] (inactive)"],
  ["CN(C)C(=O)c1ccc(-c2ccc3ncnc(Nc4ccccc4)c3c2)cc1", "Cytochrome P450 2C9 (Homo sapiens)", "15.4% [at 2.29 µM] (inactive)"],
  ["N[C@@H](Cc1c[nH]c2ccc([N+](=O)[O-])cc12)C(=O)O", "Cytochrome P450 2C9 (Homo sapiens)", "9.84% [at 11.4 µM] (inactive)"],
  ["CN(Cc1ccco1)c1ncncc1-c1ccccc1C(F)(F)F", "Cytochrome P450 2C9 (Homo sapiens)", "-7.74% [at 2.29 µM] (inactive)"]
]}

Form field activity, negative = inhibition, entry COc1ccc(/C=N\NC(=O)O)cc1 : -7.71% [at 11.4 µM] (inactive)

Form field activity, negative = inhibition, entry CS(=O)(=O)c1ccc(/C=N\NC(N)=S)cc1 : -1.25% [at 11.4 µM] (inactive)

Form field activity, negative = inhibition, entry CN(C)c1ccc(-c2ccc3ncnc(NCc4ccccc4)c3c2)cc1 : -24.6% [at 2.29 µM] (inactive)

Form field activity, negative = inhibition, entry CC(=O)OC[C@H]1O[C@@H](O/N=C(\C)CCN2CCc3nc(-c4ccccc4)c(-c4ccccc4)cc3C2)[C@H](OC(C)=O)[C@@H](OC(C)=O)[C@H]1OC(C)=O : 4.27% [at 11.4 µM] (inactive)

Form field activity, negative = inhibition, entry CN(C)C(=O)c1ccc(-c2nccc(Nc3ccc(F)cc3)n2)cc1 : -2.83% [at 2.29 µM] (inactive)

Form field activity, negative = inhibition, entry Cc1noc(C)c1-c1ccc2ncnc(N3CCOCC3)c2c1 : 7.24% [at 2.29 µM] (inactive)

###

system: Cytochrome P450 2C9 (Homo sapiens) (UniProt P11712)
Sequence (P11712 whole entry, looked up): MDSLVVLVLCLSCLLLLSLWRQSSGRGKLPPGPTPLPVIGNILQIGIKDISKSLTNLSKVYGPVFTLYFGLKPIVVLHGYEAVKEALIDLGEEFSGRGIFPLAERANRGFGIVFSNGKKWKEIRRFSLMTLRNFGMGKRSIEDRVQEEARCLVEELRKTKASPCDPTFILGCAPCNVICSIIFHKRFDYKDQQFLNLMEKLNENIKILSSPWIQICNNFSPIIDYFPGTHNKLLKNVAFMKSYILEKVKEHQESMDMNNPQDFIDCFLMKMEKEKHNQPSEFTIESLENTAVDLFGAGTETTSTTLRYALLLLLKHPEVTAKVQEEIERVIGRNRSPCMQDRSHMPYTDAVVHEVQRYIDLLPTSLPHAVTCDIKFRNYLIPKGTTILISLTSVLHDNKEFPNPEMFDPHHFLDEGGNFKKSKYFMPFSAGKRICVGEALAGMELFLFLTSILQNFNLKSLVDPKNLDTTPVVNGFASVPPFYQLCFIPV
method.summary: Cytochrome panel assay with activity outcomes
condition.notes: recombinant CYP, pro-luciferin dealkylation, luminescence, p450-cyp2c9; series mostly up to 57.1 µM
Out of some 16,000 compounds screened, about 4,000 (25%) were called active. About 26% were inconclusive and are not listed. Calls come from the whole dose curve; as a rule, active = well fitted curve in the direction sought with a large enough effect; inconclusive = small, poorly fitted or top-dose-only effect, or effect the other way; inactive = no such curve, though single readings can be large or run the other way. Only a sample is shown.
Assign a class; possible classes are active, inactive

Examples with answers:
{"columns": ["chemical.structure", "system", "class.name"],
 "data": [
  ["O=C(O)c1ccc2c3c1cccc3c(=O)n1c3ccccc3nc21", "Cytochrome P450 2C9 (Homo sapiens) (UniProt P11712)", "active"],
  ["Cc1ccc(SCCNC(=O)c2ccccc2)cc1", "Cytochrome P450 2C9 (Homo sapiens) (UniProt P11712)", "active"],
  ["CCOc1ccccc1CNCCN1CCOCC1", "Cytochrome P450 2C9 (Homo sapiens) (UniProt P11712)", "inactive"]
]}

Problem: What call does the record list for Cc1ccc(C(=O)NCCNC(=O)CN2CCOCC2)cc1 ?
Result: inactive

Problem: What call does the record list for CC(=O)N[C@@H](c1ccccc1)[C@]1(C)C[C@H]1[C@@H](C)C(=O)Nc1ccc2ccccc2c1 ?
Result: active

Problem: What call does the record list for COc1ccc(CSc2nnnn2C)cc1[N+](=O)[O-] ?
Result: inactive

###

system: Cytochrome P450 2C9 (Homo sapiens) (UniProt P11712)
method.summary: Cytochrome panel assay with activity outcomes
condition.notes: recombinant CYP, pro-luciferin dealkylation, luminescence, p450-cyp2c9; series mostly up to 57.1 µM
Experimental: The P450 gene superfamily is involved in the metabolism and clearance of xenobiotics. This assay used various human CYP P450 isozymes to measure the dealkylation of various pro-luciferin substrates to luciferin. The luciferin is then measured by luminescence after the addition of a luciferase detection reagent. […] Inhibitors and some substrates limit the production of luciferin, and decrease measured luminescence. […] 8, Detection, 1 sec, ViewLux luminescent read […]
Out of some 16,000 compounds screened, about 4,000 (25%) were called active. Inconclusive results (about 26%) are left out. The list is a sample of the results.
property.label: AC50

{"columns": ["compound", "obs.value"],
 "data": [
  ["COc1ccc(C(C(=O)NCc2ccccc2)N(Cc2cccs2)C(=O)c2cnccn2)cc1 (stereo unspecified)", "7.94 µM (active)"],
  ["COc1cc([C@H](O)CO)ccc1O", "inactive"],
  ["COC(=O)[C@@]1(Cc2ccc(F)cc2)[C@H]2c3cc(C(=O)N4CCCC4)n(CCc4c[nH]c5ccccc45)c3C[C@H]2CN1C(=O)c1ccccc1", "2.51 µM (active)"],
  ["C/C(CCC(=O)OC[C@@H]1O[C@H](C#Cc2ccccc2)C=C[C@@H]1Oc1ccc(C)cc1)=N/O[C@@H](C)c1cn([C@H](CO)Cc2ccccc2)nn1", "3.16 µM (active)"],
  ["N[C@H](CCC(=O)NCS(=O)(=O)O)C(=O)O", "inactive"]
]}

# AC50 measured on Cytochrome P450 2C9 (Homo sapiens) (UniProt P11712) for item Nc1cc(=O)[nH]c(N)n1 = inactive

# AC50 measured on Cytochrome P450 2C9 (Homo sapiens) (UniProt P11712) for item CC(=O)N1CCC2(CC1)CCN(c1ccccn1)CC2 = inactive

# AC50 measured on Cytochrome P450 2C9 (Homo sapiens) (UniProt P11712) for item COc1cccc(-c2noc(Cn3nc(C)c([N+](=O)[O-])c3C)n2)c1 = 4.47 µM (active)

# AC50 measured on Cytochrome P450 2C9 (Homo sapiens) (UniProt P11712) for item CN1CCC2(CC1)CCN(C(=O)c1ccncc1)CC2 = inactive

# AC50 measured on Cytochrome P450 2C9 (Homo sapiens) (UniProt P11712) for item COc1ccc(O[C@H]2C=C[C@@H](c3ccccc3)O[C@H]2COC(=O)CC/C(C)=N\O[C@@H](C)c2cn([C@H](CO)Cc3ccccc3)nn2)cc1 = 1.26 µM (active)

# AC50 measured on Cytochrome P450 2C9 (Homo sapiens) (UniProt P11712) for item CC(C)N=C(N)/N=C(\N)Nc1ccc(Cl)cc1 = inactive

# AC50 measured on Cytochrome P450 2C9 (Homo sapiens) (UniProt P11712) for item COC(=O)[C@@]1(Cc2ccc(F)cc2)[C@H]2c3cc(C(=O)N4CCCC4)n(CCc4c[nH]c5ccc(OC)cc45)c3C[C@H]2CN1C(=O)c1ccccc1 = 7.94 µM (active)

###

system: Cytochrome P450 2C9 (Homo sapiens) (UniProt P11712)
method.summary: Cytochrome panel assay with activity outcomes
condition.notes: recombinant CYP, pro-luciferin dealkylation, luminescence, p450-cyp2c9; series mostly up to 57.1 µM
Screen size: about 16,000 compounds; about 4,000 (25%) were called active. Roughly 26% stayed inconclusive and do not appear here. Calls come from the whole dose curve; as a rule, active = well fitted curve in the direction sought with a large enough effect; inconclusive = small, poorly fitted or top-dose-only effect, or effect the other way; inactive = no such curve, though single readings can be large or run the other way. The list is a sample of the results.
Assign a class; possible classes are active, inactive

Examples with answers:
{"columns": ["molecule", "class.name"],
 "data": [
  ["COc1ccccc1Cn1nnc2c(=O)[nH]c(C3CCN(C(=O)c4ccc(C)cc4)CC3)nc21", "active"],
  ["O=c1sc2ccccc2n1CCCOc1ccccc1", "active"],
  ["Cc1ccc(C)c(S(=O)(=O)N2CCC(c3nc4c(nnn4Cc4ccc(F)cc4)c(=O)[nH]3)CC2)c1", "active"],
  ["Cc1ccccc1OCCCN1CCCC1", "inactive"]
]}

Problem: What call does the record list for COc1cccc(Cn2nnc3c(=O)[nH]c(C4CCCN(C(=O)c5ccccc5Cl)C4)nc32)c1 (stereo not given) ?
Result: active

###

Below, each entry is listed alongside its reported activity, negative = inhibition.
system: Cytochrome P450 2C9 (Homo sapiens)
method.summary: Cytochrome panel assay with activity outcomes; on activity, negative = inhibition: on the % scale 0 is the no-effect control and ±100 the full control effect
condition.notes: recombinant CYP, pro-luciferin dealkylation, luminescence, p450-cyp2c9; series mostly up to 57.1 µM
In all, about 16,000 compounds went through this assay and about 4,000 (25%) were called active. Inconclusive results (about 26%) are left out. Not all results are given here.

Form field activity, negative = inhibition, entry Oc1ccc(Cl)cc1C=Nc1cnc2ccccc2c1 : 1.22% [at 11.4 µM] (inactive)

Form field activity, negative = inhibition, entry O=C(O)c1nnsc1-c1csnn1 : -13.9% [at 11.4 µM] (inactive)

Form field activity, negative = inhibition, entry Clc1ccc(-c2noc(CN3CCCCC3)n2)cc1 : -0.0394% [at 11.4 µM] (inactive)

Form field activity, negative = inhibition, entry O=S(=O)(O)c1ccc2cc(N=Nc3cc(S(=O)(=O)O)c4cccnc4c3O)ccc2c1 : -4.09% [at 11.4 µM] (inactive)

Form field activity, negative = inhibition, entry O=C(O)[C@H](Cc1ccc(O)c([N+](=O)[O-])c1)N1C(=O)c2ccccc2C1=O : 0.788% [at 11.4 µM] (inactive)

Form field activity, negative = inhibition, entry C#CCCCO/N=C1/[C@H]2O[C@@H]2[C@@H](O)[C@H]2[C@H]1CCn1c(=O)n(C)c(=O)n12 : 4.28% [at 11.4 µM] (inactive)

Form field activity, negative = inhibition, entry O=C(SCc1cccc2ccccc12)c1ccc(Cl)cc1 : -1.66% [at 11.4 µM] (inactive)

Form field activity, negative = inhibition, entry CCCNC(=O)OC[C@@H]1O[C@H](CCO/N=C\[C@@H](C)[C@H](OCc2ccccc2)C(C)C)C=C[C@@H]1Oc1ccc(OC)cc1 : -22.3% [at 11.4 µM] (inactive)

Form field activity, negative = inhibition, entry CCN1C(=O)[C@H]2[C@H]3[C@H](O)[C@H](O)C/C(=N/OCC(C)C)[C@@H]3CC[C@@H]2C1=O : 28.3% [at 11.4 µM] (inactive)

Form field activity, negative = inhibition, entry COc1ccc(CNc2ccnc(-c3ccccc3C(F)(F)F)n2)c(OC)c1 : 3.78% [at 2.29 µM] (inactive)

Form field activity, negative = inhibition, entry NNS(=O)(=O)c1cc(C(=O)O)cc(C(=O)O)c1 : -5.43% [at 11.4 µM] (inactive)

Form field activity, negative = inhibition, entry O[C@H](CNc1ccccn1)c1ccccc1 : -4.96% [at 11.4 µM] (inactive)

Form field activity, negative = inhibition, entry c1ccc2c(N3CCNCC3)nc(-c3ccc4c(c3)OCO4)nc2c1 : 12.6% [at 2.29 µM] (inactive)

Form field activity, negative = inhibition, entry COc1ccc(O[C@H]2C=C[C@@H](c3ccccc3)O[C@@H]2CO/N=C\[C@@H](C)[C@H](OCc2ccccc2)C(C)C)cc1 : -24.2% [at 11.4 µM] (inactive)

Form field activity, negative = inhibition, entry Cc1ccccc1CN1C2=NCCN2C(=O)C2=C1CCN(Cc1ccccc1)C2 : -1.36% [at 11.4 µM] (inactive)

Form field activity, negative = inhibition, entry Cc1ccccc1-c1nccc(NCCN2CCOCC2)n1 : 15.8% [at 2.29 µM] (inactive)

Form field activity, negative = inhibition, entry N#CC(CC(=O)O)=C(c1ccccc1)c1ccccc1 : -16.4% [at 11.4 µM] (inactive)

Form field activity, negative = inhibition, entry COC(=O)C/C=C\[C@@H](C)[C@@H](/C=N\OC[C@@H](O)COCc1ccco1)NS(=O)(=O)c1ccc(C)cc1 : -14.9% [at 11.4 µM] (inactive)

Form field activity, negative = inhibition, entry NCCNS(=O)(=O)c1ccc(N)cc1 : -0.285% [at 11.4 µM] (inactive)

Form field activity, negative = inhibition, entry COc1ccc([C@H](O)c2ccccn2)cc1 : -12.5% [at 11.4 µM] (inactive)

Form field activity, negative = inhibition, entry CO/N=C\[C@@H](NS(=O)(=O)c1ccc(C)cc1)[C@H](C)/C=C\CC(=O)OC : -27.4% [at 11.4 µM] (inactive)
